Reference source for all entries: PubChem BioAssay (NCI)

Tested on: A498 renal
PROTOCOL DESCRIPTION: NCI-60 one-dose screen, 48 h (100 = growth as untreated, 0 = no growth, -100 = all killed)
ASSAY SETUP: 10 µM unless noted
The panel holds about 83,000 compounds, 20% with a hit somewhere; the sample as a whole holds those more often.
MEASUREMENT KIND: growth (%)
Use % as the unit, but write only the number.

Worked examples follow.
MOLECULE	MEASURE UNIT	growth
CC1=C(C(=O)OCc2ccccc2)C(c2ccc(-n3cncn3)cc2)n2c(nc3ccccc32)N1 (configuration not stated)	%	79.8
Nc1nc(-c2ccccc2)c(N=Nc2ccc(Cl)cc2[N+](=O)[O-])s1	%	92
O=C1Nc2ccc([N+](=O)[O-])cc2C1=Nc1ccccc1	%	116

stdin: GET /values?readout=growth&item= COCOc1cc2oc(C(=O)N[C@@H](Cc3ccccc3)C(O)C(=O)NCc3ccccc3)c(C)c(=O)c2cc1OCOC (some centres not stated)
stdout: -35.2

stdin: I am curious: what growth value has been reported for Cc1cc2nc3c4ccccc4n(CC4=NCCN4)c3nc2cc1C ?
stdout: 63.8

stdin: Reported growth for CCCCSc1nc(Nc2ccc(S(N)(=O)=O)cc2)c(C#N)c(-c2cc(OC)c(OC)c(OC)c2)n1 : what is it?
stdout: 88.1

stdin: Given COc1ccc(NC(=O)Cn2c(/C=C/c3cccc([N+](=O)[O-])c3)nc3ccccc3c2=O)cc1 , state its recorded growth.
stdout: 92.8

stdin: State the recorded growth for this entry: COc1ccc(-c2nc3cc(C)ccc3n2CC(=O)N=Nc2c(O)[nH]c3ccc(Cl)cc23)cc1
stdout: 101

stdin: Returns the measured growth for the input molecule. Input: COc1ccc(C(SCCNCc2cc(N(C)C)ccn2)(c2ccccc2)c2ccccc2)cc1
stdout: 4.54

stdin: Returns the measured growth for the input molecule. Input: O=C(CCN1C(=O)/C(=C/c2ccc(F)cc2)SC1=S)N1CCOCC1
stdout: 72.5

stdin: Look at this molecule and give its reported growth. CNC(=O)c1cc(Oc2ccc3nc(NC(=O)Nc4cccc(OC(F)(F)F)c4)sc3c2)ccn1
stdout: 8.49

stdin: Param item = COc1cc2c(c(OC)c1OC)C(=O)CC(c1cccc(NC(=O)c3cccc(NC(=O)[C@H](C)NC(=O)OC(C)(C)C)c3)c1)O2 (some centres not stated) ; retrieve measured growth.
stdout: 104

stdin: growth for Brc1ccc(-c2n(Cc3ccc4ccccc4c3)c(-c3ccccc3)c(-c3ccccc3)[n+]2Cc2ccc3ccccc3c2)cc1 ?
stdout: -94

stdin: Data request, read-out growth, for COc1ccc(C(=O)/C=C/c2cccc(Cl)c2Cl)cc1S(N)(=O)=O
stdout: 94.9

stdin: Bench note: what growth did CC(C)c1sc(NC(=O)c2cc(NC(=O)c3cc(NC(=O)c4cscn4)cn3C)cn2C)nc1C(=O)NCCCN(C)C show?
stdout: 113

stdin: I am curious: what growth value has been reported for COc1ccc(C(=O)/C=C/c2ccccc2Br)cc1S(N)(=O)=O ?
stdout: 93.3

stdin: Endpoint output: growth of O=C(c1ccc(OCCN2CCOCC2)cc1)C1[C@H](c2ccc(Cl)cc2)[C@@H](c2ccccc2)NC12C(=O)Nc1ccc(Br)cc12 (some centres not stated) . Value?
stdout: 91.5

stdin: Request the reported growth associated with COc1ccc(-c2nc3cc(C)ccc3n2CC(=O)N=Nc2c(O)[nH]c3ccccc23)cc1
stdout: 102

stdin: Given COc1ccc(C2=NN(c3ccccc3)C(c3ccc(OC)c(OCc4ccccc4)c3)C2)cc1OC (configuration not stated) , state its recorded growth.
stdout: 101

stdin: Form field: reported growth of NS(=O)(=O)c1ccc(-n2cc(-c3cccc(NC(=O)c4cc(N5CCOCC5)cc(C(F)(F)F)c4)c3)nn2)cc1
stdout: 104

stdin: Can you share its growth? I mean this molecule: COc1cc(-c2nc3ccc(C)cc3[nH]2)ccc1OCc1nnc(-c2ccc(Br)cc2)o1
stdout: 89.3
